# experimentalTarget: full-length beta-Catenin (Uniprot ID P35222) (Homo sapiens (Human)) (UniProt P35222)
# Sequence (P35222 whole entry): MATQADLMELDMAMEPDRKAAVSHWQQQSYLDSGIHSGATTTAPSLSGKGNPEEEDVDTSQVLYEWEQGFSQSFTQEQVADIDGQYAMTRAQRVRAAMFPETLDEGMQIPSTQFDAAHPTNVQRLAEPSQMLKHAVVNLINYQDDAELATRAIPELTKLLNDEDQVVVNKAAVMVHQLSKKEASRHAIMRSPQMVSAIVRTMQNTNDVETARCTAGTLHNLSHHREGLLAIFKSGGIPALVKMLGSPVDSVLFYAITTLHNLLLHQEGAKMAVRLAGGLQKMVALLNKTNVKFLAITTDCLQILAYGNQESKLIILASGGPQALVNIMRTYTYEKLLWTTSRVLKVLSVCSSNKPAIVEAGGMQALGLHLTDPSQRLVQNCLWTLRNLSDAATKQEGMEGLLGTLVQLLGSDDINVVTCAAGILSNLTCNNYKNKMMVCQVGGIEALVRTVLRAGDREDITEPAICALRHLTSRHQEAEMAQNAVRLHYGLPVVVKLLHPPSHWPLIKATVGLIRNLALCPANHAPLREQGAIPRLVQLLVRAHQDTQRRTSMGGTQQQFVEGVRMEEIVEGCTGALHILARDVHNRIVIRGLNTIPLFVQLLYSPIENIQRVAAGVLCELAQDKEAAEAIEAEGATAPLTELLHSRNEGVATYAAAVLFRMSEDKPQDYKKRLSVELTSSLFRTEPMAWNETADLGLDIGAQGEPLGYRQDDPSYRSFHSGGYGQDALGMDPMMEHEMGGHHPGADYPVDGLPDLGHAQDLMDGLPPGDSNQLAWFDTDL
# assayProtocol: fluorescence polarization competition; full-length beta-catenin, competitor 5FAM-TCF4(10-53) probe
pEC50: −log10 of the molar value. Starred links: 1 amine or outer side, 2 acyl side, 3 side chain; linkers in the order of their positions; H or OH if unused. Positions of bridges follow the written chain, without caps; N, C: chain ends. Non-standard residues stand in square brackets, D forms with d. Primed or numbered codes have the meaning given here. PyrS2″ = (S)-3-amino-1-((pent-4-en-1-yloxy)carbonyl)pyrrolidine-3-carboxylic acid (stapling residue), C=CCCCOC(=O)N1CC[C@@](N[*:1])(C(=O)[*:2])C1; B5(4) = 2,2-bis(4-pentenyl)glycine = 2-amino-2-(pent-4-en-1-yl)hept-6-enoic acid (stitching residue), C=CCCCC(CCCC=C)(N[*:1])C(=O)[*:2]; B5 = 2-amino-2-(pent-4-en-1-yl)hept-6-enoic acid, C=CCCCC(CCCC=C)(N[*:1])C(=O)[*:2]; Phe(2-Cl) = N[C@@H](Cc1ccccc1Cl)C(=O)O; Bta = N[C@@H](Cc1csc2ccccc12)C(=O)O; αAllylPro = C=CC[C@@]1(C(=O)O)CCCN1; Cha = N[C@@H](CC1CCCCC1)C(=O)O; S8 = C=CCCCCCC[C@](C)(N)C(=O)O; Abu = CC[C@H](N)C(=O)O
recordedMetric: pEC50

(P) Ac-[αAllylPro]D[Cha][B5(4)]DEAAFL[PyrS2″][Phe(2-Cl)][Bta]Q-NH2 (staple 1-4, 4-11; also: later-eluting HPLC peak staple isomer composition) [I-1078]
(Q) Ac-[αAllylPro]D[Abu][B5]DDAAFN[S8]F[Bta]H-NH2 (staple 1-4, 4-11) [I-574]
Data request: Sort P and Q by pEC50 descending and give the first. Provide the label of your selected option as the answer.
Data returned: Q
(Q: 7.44, P: 6.45)

Cited source for all entries: patent US20240116985A1
